These data points were gathered from the supplement of paper PMC9170038.

# Tested on: K4 kissing-loop RNA reporter;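 also: bound reporter read as fluorescence of individual clusters on recovered sequencing chips by microscopy, with normalized cluster intensities fitted with a binding model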
# protocolDescription: apparent KD of K4 kissing-loop reporter; higher = weaker reporter binding
# details: Eterna round: R107; input ligand: tryptophan 2.4 mM
Label True when apparent KD of K4 kissing-loop reporter is at or above 200 nM; otherwise label False.

Below, 3 sequences whose answers are already recorded.
seqText	classification
ACGCUUGAAUAACAAGCGAAAUAAAAUUCGCGAGGACCGGUACGGCCGCCACUCGCUAACUGCGAGUGAUGUUCGAUAAUAAAAU [Mat - Mod of OpenEnded 3 - D16]	False
GUGCAAAGCACCGGCACGAGCAGCCUAAAGGAGGAUAUGACGAAAGUCAGAAGGCCUAGUGAUGUUAGGCCUUGCUUGAGUCGAA [Omei KL FMN A Exc B v1]	False
UGAUACCAGACGGCCGCCACUCCCGUAAGUCAAAGACUUACGAAGAGGGUUUUUUAGUGAUGUUGGAGGACCGGGUCUGGUAUCU [FiskerMod 18 - Jieux - Exclusion - Tryptophan B]	True

Query: Determine whether this sequence has apparent KD of K4 kissing-loop reporter no lower than 200 nM: AUGCGCGCGGCGGCCGCCACUCGCAUGAGAGUGAUGUUCUCACCGUGACCGUAAGGUCGCGGUGUGAGGACCGGGCCGGGCUGCG [#2 Same State - Tryptophan B Attempt #23 (HarryS)]
Response: False

Query: Determine whether this sequence has apparent KD of K4 kissing-loop reporter no lower than 200 nM: UGUCAUUGGUCGGCCGCCACUAGACGGAUCAUAAGAUCUGUCAAUAAGAGUGAUGUUCUAAAUAAUAGGACCGGGACCGAUGACU [TrypBS 27 #SwitchBubble #StaticStem]
Response: True

Query: Determine whether this sequence has apparent KD of K4 kissing-loop reporter no lower than 200 nM: ACGACGCAUAGUGAUACCAGCACAAUAUGAGUGAUGUUCAACAUAUAAAUGUAAUAAUUAUGCCCUUGGCAGCACUAUGCGUCAG [KL-SSTheoB1]
Response: True

Query: Determine whether this sequence has apparent KD of K4 kissing-loop reporter no lower than 200 nM: GGCCGAAGAGAAGGAUAUGGUUUCACGCGUCGUUAGUGAUGUUAAUGCGCAUGCCUUAGUAUAGAGCCAGAAGGUCUGGUCAGAA [theeternabot_sameState_KL_FMN_B_34]
Response: True

Query: Determine whether this sequence has apparent KD of K4 kissing-loop reporter no lower than 200 nM: AGAACUGUCUGAGAUACCAGCUAAGGAGUGAUGUUCCUAGCUCCACGAAAGUGGAGCCAUAGCCCUUGGCAGCUCAGACAGUUCA [Omei KL Theo B SS A v6]
Response: True

Query: Determine whether this sequence has apparent KD of K4 kissing-loop reporter no lower than 200 nM: GGUGAUGAGCACGAUACCAGCCUCGGAGCCAGUGAUGUUGGCCCAAUUUAAAAUAAGAUAGGCCCUUGGCAGCGUGACGAUGGCU [Rainle]
Response: True

Query: Determine whether this sequence has apparent KD of K4 kissing-loop reporter no lower than 200 nM: GGAUAGGACUGAGGAUAUGGUAGUGAUGUUACCAAACUGGUUAAACAUGUCAGAAAACUGGCAUGACCAGAAGGCGGUCCUAUCG [FmnBX 27 U10+G76]
Response: False

Query: Determine whether this sequence has apparent KD of K4 kissing-loop reporter no lower than 200 nM: CCAUUCUUUUACGAUACCAGUUUUAUUUAGUUAUUCAUAACCCUUGCCGAGUGAUGUUCGGACCCUUGGCAGCGUUUGCGAGAGG [zaadvmullin]
Response: True
